Target: Kras and SOS1 (biotin-tagged human Kras loaded with GDP, His-tagged human SOS1) (Homo sapiens, UniProt P01116, G12D)
Construct: made in house; host or cells: E. coli (stated for Kras only)
Sequence (P01116 1-188 isoform P01116-2 G12D): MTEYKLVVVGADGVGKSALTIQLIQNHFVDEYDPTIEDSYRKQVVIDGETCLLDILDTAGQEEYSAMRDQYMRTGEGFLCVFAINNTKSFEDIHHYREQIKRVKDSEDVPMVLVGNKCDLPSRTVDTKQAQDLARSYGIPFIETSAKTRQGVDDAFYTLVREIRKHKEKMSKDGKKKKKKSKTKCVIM
Assay: Protein-protein interaction inhibition between Kras and SOS1 (KrasGl2D-SOS PPI) using AlphaScreen
Format: binding
Conditions: AlphaScreen; biotin-tagged human Kras loaded with GDP, His-tagged human SOS1; read-out: KRAS G12D-SOS PPI IC50
Positions of bridges follow the written chain, without caps; N, C: chain ends. Non-standard residues stand in square brackets, D forms with d. Residues, ends and D or L forms follow the SMILES beside them. *: point of attachment. hPhe(4-CF3) = N[C@@H](CCc1ccc(C(F)(F)F)cc1)C(=O)O; NMePhe(4-Cl) = CN[C@@H](Cc1ccc(Cl)cc1)C(=O)O; NMeCha = CN[C@@H](CC1CCCCC1)C(=O)O; NMeChg = CN[C@H](C(=O)O)C1CCCCC1; NMeF = CN[C@@H](Cc1ccccc1)C(=O)O; NMeD = CN[C@@H](CC(=O)O)C(=O)O; NMeL = CN[C@@H](CC(C)C)C(=O)O; d(β3hA) = C[C@@H](N)CC(=O)O; Pip = O=C(O)[C@@H]1CCCCN1; Morpholide = C1CN(*)CCO1; NMeA = CN[C@@H](C)C(=O)O; Ac5c = NC1(C(=O)O)CCCC1; Aib = CC(C)(N)C(=O)O; βAla = NCCC(=O)O; Sar = CNCC(=O)O
Test Readout: IC50 (nM)
Please reply with the bare figure in nM and do not write the unit itself.

Compound	IC50 [nM]
CC[C@H](C)[C@@H]1NC(=O)[C@@H]2CCCCN2C(=O)C[C@@H](C)NC(=O)[C@H](CC(C)C)N(C)C(=O)C(C)(C)NC(=O)[C@H](CC(C)C)N(C)C(=O)[C@H](CCc2ccc(C(F)(F)F)cc2)NC(=O)CN(C)C(=O)[C@H](Cc2ccc(Cl)cc2)N(C)C(=O)CN(C)C(=O)CN(C)C1=O [Compound 286] (cyclo([Aib][NMeL][d(β3hA)][Pip]I[Sar][Sar][NMePhe(4-Cl)][Sar][hPhe(4-CF3)][NMeL]))	96

-- ask Give its IC50 value. Item: CC[C@H](C)[C@@H]1NC(=O)[C@H](C)N(C)C(=O)CCNC(=O)[C@H](CC(C)C)N(C)C(=O)[C@H](Cc2ccccc2)N(C)C(=O)[C@@H]2CCCN2C(=O)[C@H](CCc2ccc(C(F)(F)F)cc2)NC(=O)CN(C)C(=O)[C@H](Cc2ccc(Cl)cc2)N(C)C(=O)CN(C)C(=O)CN(C)C1=O [Compound 1086] (cyclo(I[Sar][Sar][NMePhe(4-Cl)][Sar][hPhe(4-CF3)]P[NMeF][NMeL][βAla][NMeA]))
-- reply 180

-- ask Give its IC50 value. Item: CC[C@H](C)[C@@H]1NC(=O)[C@H](CC(C)C)N(C)C(=O)C[C@@H](C(=O)N2CCOCC2)N(C)C(=O)[C@H](C2CCCCC2)N(C)C(=O)C2(CCCC2)NC(=O)[C@@H]2CCCN2C(=O)[C@H](CCc2ccc(C(F)(F)F)cc2)NC(=O)CN(C)C(=O)[C@H](CC2CCCCC2)N(C)C(=O)CN(C)C(=O)CN(C)C1=O [Compound 1947] ([NMeL]I[Sar][Sar][NMeCha][Sar][hPhe(4-CF3)]P[Ac5c][NMeChg][NMeD]-Morpholide; lactam N-11)
-- reply 1.2
